System: MDA-MB-468 breast
Experiment: NCI-60 one-dose screen, 48 h (100 = growth as untreated, 0 = no growth, -100 = all killed)
Details: 10 µM unless noted
Experimental: Growth inhibition of the MDA-MB-468 human Breast tumor cell line is measured as a screen for anti-cancer activity. Cells are grown in 96 well plates and exposed to the test compound for 48 hours. Compounds are tested at a single concentration, which is 10^-5 M for most compounds. The reported endpoint is percent growth (GI% or GIPRCNT), where numbers from 0 - 100% represent growth inhibition, and numbers from -100% - 0 represent cell death. […]
The panel holds about 83,000 compounds, 20% with a hit somewhere; the sample as a whole holds those more often. Activity calls are given as the source filed them. Rule for the calls: active = growth percent below 10; inactive = the rest.
As shown below, each of these compounds has a reported growth value.
measured metric: growth

INSERT INTO measurements (compound, target_or_system, assay_result) VALUES
  ('C[Se]C(=O)CC1=C2C=C(F)C=CC2/C(=C\c2ccc(S(C)=O)cc2)C1C (stereo unspecified)', 'MDA-MB-468 breast', '-46.2% (active)'),
  ('COc1cc(/C=N/Nc2ncc(-c3cc4cc5c(cc4o3)OCO5)s2)cc(OC)c1OC', 'MDA-MB-468 breast', '25.2% (inactive)'),
  ('COc1cccc(-c2nn(-c3ccccc3)cc2-c2ccnc(NCCNS(=O)(=O)c3ccc(C(F)(F)F)cc3)c2)c1', 'MDA-MB-468 breast', '9.78% (active)'),
  ('N#Cc1ccc(OC(=O)Nc2cc(Cl)cc(Cl)c2)cc1', 'MDA-MB-468 breast', '-16.4% [100 µM] (active)'),
  ('FC(F)(F)c1[nH]ncc1-c1nc2ccc3[nH]ncc3c2c2c1CCCC2', 'MDA-MB-468 breast', '19.7% (inactive)'),
  ('Cn1cc(C(=O)NCCC(=N)N)cc1NC(=O)CN=C(N)N', 'MDA-MB-468 breast', '96.7% (inactive)');

----------
Tested on: MDA-MB-468 breast
Test: NCI-60 one-dose screen, 48 h
Conditions: 10 µM unless noted
About 83,000 compounds went through this panel and 20% of them were active in at least one assay; those are over-represented in the sample as a whole. Activity calls are given as the source filed them. Rule for the calls: active = growth percent below 10; inactive = the rest.
Classes used: true for active, false for inactive

INSERT INTO measurements (molecule, qualitative_label) VALUES
  ('Oc1ccccc1N=Cc1c(O)ccc2ccccc12', 'false'),
  ('N#Cc1c(-c2ccccc2)cc(-c2ccccc2)n(CCCC(=O)NO)c1=O', 'false'),
  ('Cc1ccc(/C=C2\SC(=S)N(CC(=O)NCCCN3CCOCC3)C2=O)cc1', 'false'),
  ('COc1ccccc1/C=C/C(=O)CCC(=O)O', 'false'),
  ('COc1cc(CNC(=O)CCCC/C=C/C(C)C)ccc1OCc1cn(-c2ccc(C(F)(F)F)cc2)nn1', 'false'),
  ('COc1cc(-c2nn(-c3cccc(NC(=O)Nc4cc(C(F)(F)F)cc(C(F)(F)F)c4)c3)cc2-c2ccncc2)ccc1Cl', 'true'),
  ('CC(=O)c1ccc(NC(=O)Nc2ccc(S(=O)(=O)Nc3ccc(Cl)nn3)cc2)cc1', 'false'),
  ('Nc1c(C(=O)Nc2cccc3ncccc23)sc2nc3c(cc12)CN(Cc1ccccc1)CC3', 'false'),
  ('COc1ccc(Nc2nccc(Nc3ccc4[nH]ncc4c3)n2)cc1', 'false'),
  ('Cc1ccc(C(NC(=O)c2ccccc2)c2ccc3cccnc3c2O)cc1 (stereo unspecified)', 'true'),
  ('O=S(=O)(NCCCNc1nccc(-c2c(-c3ccccc3)nc3sccn23)n1)c1ccc(F)cc1', 'false');

----------
System: MDA-MB-468 breast
Assay: NCI-60 one-dose screen, 48 h
Details: 10 µM unless noted
Compounds without any hit were thinned out: in the full panel of roughly 83,000, 20% have a hit. The source made the active and inactive calls. The calls were made as follows: active = growth percent below 10; inactive = the rest.
Possible outcomes: true (active), false (inactive)

INSERT INTO assay_data (compound, qualitative_label) VALUES
  ('COC(=O)c1nc(-c2ccc(C)cc2)oc1S(=O)(=O)c1cccc(OC)c1', 'false'),
  ('N#Cc1c(-c2ccc(C(F)(F)F)cc2)cc(N2CC(O)C2)n2c1nc1ccccc12', 'false'),
  ('Cc1nc2cnc(N)c(C#Cc3cncc(C(=O)Nc4ccc(CN5CCN(C)CC5)c(C(F)(F)F)c4)c3)c2nc1C', 'false'),
  ('Cc1ccc2cccc(OC(=O)Nc3cccc(C(F)(F)F)c3)c2n1', 'false'),
  ('Clc1cccc(Nc2ncnc3ccc(-c4cncc(-n5cnnn5)c4)cc23)c1', 'true'),
  ('O=C1c2ccccc2C(=O)c2c1ccc1[nH]c(CCl)nc21', 'true'),
  ('Cc1oc(-c2ccc(Cl)cc2)nc1C1=NN(C(=O)c2ccncc2)C(c2ccccc2)C1 (centres undefined)', 'false'),
  ('O=C(COc1ccc(/C=C2\C(=O)Nc3ccc(Cl)cc32)cc1)Nc1ccc(Cl)cc1', 'false'),
  ('NC(N)=Nc1ccc(Nc2cccc(Nc3ccc(Cl)c(C(F)(F)F)c3)c2)cn1', 'true');

----------
Catalogue of growth readings, one per entry.
System: MDA-MB-468 breast
Assay: NCI-60 one-dose screen, 48 h (100 = growth as untreated, 0 = no growth, -100 = all killed)
Conditions: 10 µM unless noted
About 83,000 compounds went through this panel and 20% of them were active in at least one assay; those are over-represented in the sample as a whole.
measured metric: growth (%)

INSERT INTO assay_data (compound, unit_of_measure, assay_result) VALUES
  ('CCSc1ccc([C@@H]2[C@@H](N)C(=O)N2c2cc(OC)c(OC)c(OC)c2)cc1', '%', 17),
  ('O=C(/C=C/c1ccc(Br)cc1)c1ccc(-n2cc(CN3CCN(c4cc5c(cc4F)c(=O)c(C(=O)O)cn5C4CC4)CC3)nn2)cc1', '%', 92.2),
  ('COc1ccc(CCNC(=S)NN)cc1OC', '%', 128),
  ('COc1cc([C@@H]2c3cc4c(cc3C(OC3O[C@@H]5COC(C)O[C@H]5[C@H](O)[C@H]3O)C3COC(=O)[C@@H]32)OCO4)cc(OC)c1O (some centres undefined)', '%', -31);

----------
System: HCT-116 colon
Experiment: NCI-60 one-dose screen, 48 h (100 = growth as untreated, 0 = no growth, -100 = all killed)
Details: 10 µM
About 83,000 compounds went through this panel and 20% of them were active in at least one assay; those are over-represented in the sample as a whole.
measured metric: growth (%)

INSERT INTO assay_data (smiles_text, assay_result) VALUES
  ('Cc1ccc(S(=O)(=O)N2CCN(S(=O)(=O)c3oc(-c4ccccc4)nc3C#N)CC2)cc1', 84.6),
  ('Cn1cc(-c2nc(N)nnc2-c2c[nH]c3ccccc23)c2cc(Br)cnc21', 7.04),
  ('CCOc1ccc(/C=N/NC(=O)Cn2nc(Cc3ccc(OC)cc3)c3onc(C)c3c2=O)cc1', -23.3),
  ('O=C(Nc1ccc(OCc2ccc(F)cc2)cc1)Nc1ccc(Cl)c(C(F)(F)F)c1', 4.96),
  ('Nc1nnc(-c2c[nH]c3ncc(Br)cc23)c(-c2c[nH]c3ccc(Br)cc23)n1', 22.1),
  ('O=C(c1ccc(Cl)cc1)C(c1c[nH]c2ccccc12)c1c[nH]c2ccccc12', -91.4),
  ('COc1ccc(Cc2nn(CC(=O)N/N=C/c3ccc(Br)cc3)c(=O)c3c(C)noc23)cc1', 0.469),
  ('O=C(CC(=O)Nc1ccc(Oc2ncnc3scc(Nc4n[nH]c(=S)s4)c23)cc1)Nc1ccc(Br)cc1', 107),
  ('O=C(CSc1nc2ccccc2c(=O)n1-c1ccc(Cl)cc1)Nc1ccc(-c2nc3ccccc3[nH]2)cc1', -84.3),
  ('Cn1cc(-c2nnc(N)nc2-c2c[nH]c3ccc(F)cc23)c2cc(Br)cnc21', 59.2),
  ('O=C(CN1CCN(c2ncnc3c2cnn3-c2ccccc2)CC1)Nc1ccc(Br)cc1', 52.5),
  ('Fc1ccc(-c2csc(Nc3cccc(Nc4nc(-c5ccc(F)cc5)cs4)c3)n2)cc1', 57.7),
  ('O=C(Nc1ccc(OCC(=O)c2ccc(Cl)cc2)cc1)Nc1ccc(Cl)c(C(F)(F)F)c1', 50.8);

----------
Test system: M14 melanoma
Assay: NCI-60 one-dose screen, 48 h (100 = growth as untreated, 0 = no growth, -100 = all killed)
Settings: 10 µM
The panel holds about 83,000 compounds, 20% with a hit somewhere; the sample as a whole holds those more often.
Some compounds, each annotated with its measured growth.
measured metric: growth (%)

INSERT INTO results (smiles_text, assay_result) VALUES
  ('O=C(CN1CCN(c2ncnc3c2cnn3-c2ccccc2)CC1)Nc1ccc(Cl)cc1', 59.4),
  ('O=C(Nc1ccc(Oc2ncnc3scc(Nc4n[nH]c(=S)s4)c23)cc1)C1(C(=O)Nc2cccc(C(F)(F)F)c2)CC1', 103),
  ('Cc1ccc2c(c1)C(=O)/C(=C/c1ccc([N+](=O)[O-])cc1)S2', 97.3);
